# assayProcedure: protein stability index of a GFP-peptide fusion (yeast GPS) (PSI 1-4); higher = more stable; sorted into four equal gates, so the index is relative within each strain
# conditionNotes: ubr1∆
measureName: protein stability index

> print(dat)
             constructsequence              measurename  observedmeasurement
 1   LSPPEFLFHAISGREGL [RPO31]  protein stability index                 1.63
 2  DPQPFLKHVLQLIFRQQ [SNU114]  protein stability index                 2.51
 3   SSDVDMDDEEWRSKRIE [RPC53]  protein stability index                 3.31
 4   ANANANATANATANATA [SNF11]  protein stability index                 3.34
 5   EMMKMMQDPQMQQMAKQ [SRP54]  protein stability index                 2.67
 6   IIGHNPDENKTRVRLPS [RPL2A]  protein stability index                    3
 7   EMGYLIQISKLHYTPIE [RPC82]  protein stability index                 1.47
 8   TAMKKVEDGNILVFQVS [RPL25]  protein stability index                  2.8
 9    SQSLGVSNKFEKIFHYG [PUP3]  protein stability index                 3.61
10    RADIVRNIILEARFDVL [ISW2]  protein stability index                 2.51
11    ILNDIETLEHNPVALEQ [BRR2]  protein stability index                 3.13
12    KQYDNRITKSNEKSQAE [LRP1]  protein stability index                 3.02
13    LFQDGSASLHTRSLKYG [RRP4]  protein stability index                 2.88
14   CAEGIFVVKLDTVDRLI [GAL11]  protein stability index                 2.62
15   PKSKSLPNEMSQNDGFV [RPO31]  protein stability index                 3.36

Every entry's value here was drawn from the supplement of paper PMC9732359.
